# Tested on: P388 leukemia ip, CD2F1 mice, survival T/C
# assayRemarks: NCI In Vivo Anticancer Drug Screen. Data for tumor model P388 Leukemia (intraperitoneal) in CD2F1 (CDF1) mice
# setupConditions: endpoint: median survival time; dose: 200.0 mg/kg/injection; schedule: Q01DX001 (ip); vehicle: Klucel (hydroxypropylcellulose) (HPC); higher = longer survival
Inconclusive results and toxic doses are left out.
recordedEndpoint: T/C

Check out these entries, answers already filled in.
[[record]]
compound = "c1ccc(C2=NCCN=C2c2ccccc2)cc1"
assayvalue = "99 % of control"

[[record]]
compound = "O=C1c2ccccc2C(=O)N1c1ccccc1"
assayvalue = "100 % of control"

[[record]]
compound = "Cc1cc2c(c(O)c1O)/C(=C/N=NC(N)=S)C(Cl)=N2"
assayvalue = "102 % of control"


**Query** Param item = COc1ccc(C(=O)Cc2cc3c(cc2Br)OCO3)cc1OC ; retrieve measured T/C.
**Result** 105 % of control

**Query** Param item = CCCCCC1(CCCCCCCC(O)CC(=O)OCC)OCCO1 (stereo not drawn) ; retrieve measured T/C.
**Result** 108 % of control

**Query** Param item = CC(C)=CCc1cc2c(cc1O)OC[C@H]1c3cc4c(cc3O[C@@H]21)OCO4 ; retrieve measured T/C.
**Result** 96 % of control

---

Reported T/C values are given for each entry in this list.
# Test system: P388 leukemia ip, CD2F1 mice, survival T/C
# assayRemarks: NCI In Vivo Anticancer Drug Screen. Data for tumor model P388 Leukemia (intraperitoneal) in CD2F1 (CDF1) mice
# setupConditions: endpoint: median survival time; dose: 50.0 mg/kg/injection; schedule: Q01DX005 (ip); vehicle: Klucel (hydroxypropylcellulose) (HPC); higher = longer survival
# Experimental: The antitumor activity of compounds was measured in mice bearing transplantable tumors. Survival or tumor size were measured and the results are expressed as the measurement made in the treated group (T) divided by the measurement made in the vehicle treated control group (C). The tumor model used in this assay is P388 Leukemia (intraperitoneal) in CD2F1 (CDF1) mice
Toxic doses and inconclusive results are not listed.

[[record]]
compound = "CC1=C(CCC(=O)O)c2cc3nc(cc4[nH]c(cc5[nH]c(cc1n2)c(C)c5C1CC1C(=O)O)c(C)c4C1CC1C(=O)O)C(C)=C3CCC(=O)O (centres undefined)"
targetsystem = "P388 leukemia ip, CD2F1 mice, survival T/C"
assayvalue = "106 % of control"

[[record]]
compound = "COC(=O)C(CP(C)(C)=O)C(N=C(C)C(F)(F)F)(c1ccccc1)c1ccccc1 (centres undefined)"
targetsystem = "P388 leukemia ip, CD2F1 mice, survival T/C"
assayvalue = "100 % of control"

[[record]]
compound = "O=C(NCCCCCCNC(=O)C12CC3CC(CC(C3)C1)C2)C12CC3CC(CC(C3)C1)C2"
targetsystem = "P388 leukemia ip, CD2F1 mice, survival T/C"
assayvalue = "92 % of control"


**Query** Param item = CCCCNc1ccc2nnc(C)n2n1 ; retrieve measured T/C.
**Result** 103 % of control

**Query** Param item = CCOC(=O)C1=CNc2c(C#N)cnn2C1(C(=O)OCC)c1c[nH]c2ccccc12 (centres undefined) ; retrieve measured T/C.
**Result** 102 % of control

**Query** Param item = CC1C(n2[nH]c(=O)n(C)c2=O)c2ccccc2-n2c(=O)n(C)c(=O)n21 (centres undefined) ; retrieve measured T/C.
**Result** 96 % of control

The origin of these recorded values is PubChem BioAssay AID330.
